// compounds with Ki on Muscarinic acetylcholine receptor M2 (Homo sapiens, UniProt P08172), multi-source literature
# TARGET_OR_SYSTEM: Muscarinic acetylcholine receptor M2 (Homo sapiens, UniProt P08172)
# Sequence (P08172 whole entry): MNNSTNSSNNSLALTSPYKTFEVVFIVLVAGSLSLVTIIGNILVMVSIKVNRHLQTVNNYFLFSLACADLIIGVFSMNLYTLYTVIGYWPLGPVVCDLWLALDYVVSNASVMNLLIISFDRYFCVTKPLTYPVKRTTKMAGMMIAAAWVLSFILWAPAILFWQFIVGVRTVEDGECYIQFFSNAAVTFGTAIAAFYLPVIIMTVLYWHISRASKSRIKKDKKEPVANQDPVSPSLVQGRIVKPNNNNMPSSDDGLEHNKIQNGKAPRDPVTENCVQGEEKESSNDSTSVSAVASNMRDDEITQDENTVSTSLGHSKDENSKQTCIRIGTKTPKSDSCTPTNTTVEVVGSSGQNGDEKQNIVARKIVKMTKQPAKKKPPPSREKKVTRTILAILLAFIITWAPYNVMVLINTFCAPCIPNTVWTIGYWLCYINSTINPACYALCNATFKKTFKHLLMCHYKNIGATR
Please use true (1) for Ki under 0.09 µM and false (0) for everything else, ties included.

Is the reported Ki for CN(CCCC(O)(c1ccccc1)c1ccccc1)CCN(C)CCCC(O)(c1ccccc1)c1ccccc1 strictly below 0.09 µM?
false (0)

Is the reported Ki for C[C@@H]1OC(=O)[C@H]2C=C3CCCC[C@@H]3/C(=C/CC3CCC(C)(C)[N+]3(C)C)[C@@H]12 (some centres not stated) strictly below 0.09 µM?
false (0)

Is the reported Ki for C[C@@H]1CN(C2CCN(C(=O)c3ccccc3COC(=O)c3ccccc3)CC2)CCN1[C@@H](C)c1ccc(S(=O)(=O)c2ccc3c(c2)OCO3)cc1 strictly below 0.09 µM?
true (1)

Is the reported Ki for Cc1ccc2c(c1)CCCN2CC(=O)N1CCCCC1 strictly below 0.09 µM?
false (0)

Next:
Is the reported Ki for C[C@@H]1OC(=O)[C@H]2C=C3CCCC[C@@H]3[C@@H]([C@@H]3CC4CCC(C)(C)[N+]4(C)O3)[C@@H]12 (some centres not stated) strictly below 0.09 µM?
false (0)

Is the reported Ki for Cc1ccccc1C(=O)N1CCC(N2CCC(Cc3ccc(C(=O)NC4CCCCC4)cc3)CC2)CC1 strictly below 0.09 µM?
true (1)

Is the reported Ki for CN1CCC=C(c2nsnc2OCCCCCCCCCCCCCC2CCN(CCCN3C(=O)CCc4ccccc43)CC2)C1 strictly below 0.09 µM?
true (1)

---

// compounds with pKi on UniProt:P08172, multi-source literature
One number for each entry, as −log10 of the molar value.

List the reported pKi of each compound below.
1. Cc1cccnc1C(=O)N1CCC(N2CCN([C@@H](C)c3ccc(S(=O)(=O)c4ccc5c(c4)OCO5)cc3)[C@H](C)C2)CC1
2. CCN(CC)CCOCCNC(=O)C1(c2ccccc2)CCCC1
3. COc1ccccc1C(=O)N1CCC(N2CCN([C@@H](C)c3ccc(S(=O)(=O)c4ccc5c(c4)OCO5)cc3)[C@H](C)C2)CC1
4. C[N+](C)(CCCC(O)(c1ccccc1)c1ccccc1)CC[N+](C)(C)CCCC(O)(c1ccccc1)c1ccccc1

1: 7.11; 2: 5.31; 3: 10.00; 4: 4.32

---

pKi: −log10 of the molar value.
// molecules with pKi on Muscarinic acetylcholine receptor M2 (Homo sapiens, UniProt P08172), multi-source literature
Threshold check on pKi: at or above 8 gives Y, strictly below gives N.

Use the examples below as a reference point.
Determine whether measured pKi meets or exceeds 8 for CCOCC(=O)N1CCC(N2CCC(Oc3ccc(S(=O)(=O)c4ccc5c(c4)OCO5)cc3)CC2)CC1
N

Determine whether measured pKi meets or exceeds 8 for CN1CCN(CC(=O)N2c3ccccc3C(=O)Nc3cccnc32)[C@@H]2CCCC[C@H]21 (relative stereo)
N

Next:
Determine whether measured pKi meets or exceeds 8 for Cc1ccnc(C)c1C(=O)N1CCC(C)(N2CCN([C@@H](C)c3ccc(C(F)(F)F)cc3)[C@@H](C)C2)CC1
N

Determine whether measured pKi meets or exceeds 8 for CC(C)NC(=O)c1ccc(C2(C3CCN(C4CCN(C(=O)c5ccc(F)c6ccccc56)CC4)CC3)OCCO2)cc1
Y

Determine whether measured pKi meets or exceeds 8 for CC(c1ccc(S(=O)(=O)c2ccccc2)cc1)N1CCN(CCO)CC1 (stereo not given)
N

---

// compounds with pKi on UniProt P08172, multi-source literature
pKi: −log10 of the molar value.
Categorized via pKi: L: < 5; M: ≥ 5 and < 7; H: ≥ 7

Use the examples below as a reference point.
Tag the class for CC1Cc2ccccc2N1CC(=O)N1CCCC1 (stereo not given)
L

Tag the class for CCOC(=O)N1CCC(N2CCC(Oc3ccc(S(=O)(=O)c4ccc5c(c4)OCO5)cc3)CC2)CC1
H

Tag the class for CN(C)CCC1=C(Cc2ccncc2)c2ccccc2C1
M

Tag the class for Cc1cccc(C)c1C(=O)N1CCC(N2CCN(Cc3ccc(Cc4ccc5c(c4)OCO5)cc3)CC2)CC1
M

Tag the class for C[C@H]1CN(C2CCN(C(=O)c3c(Cl)cccc3Cl)CC2)CCN1[C@@H](C)c1ccc(S(=O)(=O)c2ccc3c(c2)OCO3)cc1
M

Next, consider the following compound.
Tag the class for CN1CCN(CC(=O)N2c3ccccc3C(=O)Nc3cccnc32)[C@@H]2CCCC[C@@H]21 (relative stereo)
M

---

// molecules with pKi on UniProtKB P08172, multi-source literature
# TARGET_OR_SYSTEM: UniProtKB P08172
# Sequence (P08172 whole entry): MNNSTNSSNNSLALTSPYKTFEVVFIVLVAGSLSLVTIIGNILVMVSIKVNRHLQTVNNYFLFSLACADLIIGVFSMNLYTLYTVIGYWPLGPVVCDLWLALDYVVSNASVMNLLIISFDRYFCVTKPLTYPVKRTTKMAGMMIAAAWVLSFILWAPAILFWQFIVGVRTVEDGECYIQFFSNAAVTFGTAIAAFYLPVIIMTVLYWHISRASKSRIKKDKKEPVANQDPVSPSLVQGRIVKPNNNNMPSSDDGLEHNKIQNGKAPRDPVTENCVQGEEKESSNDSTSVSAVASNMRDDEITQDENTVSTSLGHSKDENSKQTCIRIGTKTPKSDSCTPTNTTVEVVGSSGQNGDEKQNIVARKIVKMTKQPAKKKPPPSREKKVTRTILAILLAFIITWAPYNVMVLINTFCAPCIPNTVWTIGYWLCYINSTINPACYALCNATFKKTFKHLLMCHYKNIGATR
pKi: −log10 of the molar value.
Threshold check on pKi: at or above 7 gives 1 (yes), strictly below gives 0 (no).

Determine whether measured pKi meets or exceeds 7 for O=C1CCc2ccccc2N1CCCN1CCC(CCCCCCCCCO)CC1
0 (no)

Determine whether measured pKi meets or exceeds 7 for CC(C)NC(=O)c1ccc(CC2CCN(C3CCN(C(=O)c4ccc5[nH]ccc5c4)CC3)CC2)cc1
1 (yes)

Next, consider the following molecule.
Determine whether measured pKi meets or exceeds 7 for N=C(N)NCCC[C@@H](N)C(=O)NCCN1CCN(CCCCC2CCN(CC(=O)N3c4ccccc4NC(=O)c4ccccc43)CC2)CC1
1 (yes)

---

// compounds with pKi on Muscarinic acetylcholine receptor M2 (Homo sapiens), multi-source literature
Answers are plain numbers, as −log10 of the molar value.

State its pKi: C=C(c1ccc(S(=O)(=O)c2ccc(OC)cc2)cc1)C1CCN(C2CCN(C(=O)OCCC)CC2)CC1
9.23

List the reported pKi of each compound below.
1. CN(C)CCNC(=O)C1=C(Cc2cccnc2)c2ccccc2C1
2. O=C1CCc2ccccc2N1CCCN1CCC(CCc2ccccc2)CC1
3. Cc1ccc2c(c1)C(C(C)c1ccccn1)=C(CCN(C)C)C2 (centres undefined)
4. C[N+](C)(CCCC(O)(c1ccccc1)c1ccccc1)CCC[N+](C)(C)CCCC(O)(c1ccccc1)c1ccccc1
5. CC(C)(C)OC(=O)N1CCN(CC(=O)n2c3ccccc3c3ccccc32)CC1
6. COc1ccc(S(=O)(=O)c2ccc([C@H](C)N3CCN(C4CCN(C(=O)c5ccccc5C)CC4)C[C@H]3C)cc2)cc1
7. CCOC(=O)N1CCN(C(C)c2ccc(S(=O)(=O)c3ccccc3)cc2)CC1 (centres undefined)

1. 4.40
2. 6.69
3. 5.71
4. 4.92
5. 4.64
6. 8.59
7. 6.87

---

// molecules with pKi on Muscarinic acetylcholine receptor M2 (Homo sapiens, UniProt P08172), multi-source literature
# TARGET_OR_SYSTEM: Muscarinic acetylcholine receptor M2 (Homo sapiens, UniProt P08172)
# Sequence (P08172 whole entry): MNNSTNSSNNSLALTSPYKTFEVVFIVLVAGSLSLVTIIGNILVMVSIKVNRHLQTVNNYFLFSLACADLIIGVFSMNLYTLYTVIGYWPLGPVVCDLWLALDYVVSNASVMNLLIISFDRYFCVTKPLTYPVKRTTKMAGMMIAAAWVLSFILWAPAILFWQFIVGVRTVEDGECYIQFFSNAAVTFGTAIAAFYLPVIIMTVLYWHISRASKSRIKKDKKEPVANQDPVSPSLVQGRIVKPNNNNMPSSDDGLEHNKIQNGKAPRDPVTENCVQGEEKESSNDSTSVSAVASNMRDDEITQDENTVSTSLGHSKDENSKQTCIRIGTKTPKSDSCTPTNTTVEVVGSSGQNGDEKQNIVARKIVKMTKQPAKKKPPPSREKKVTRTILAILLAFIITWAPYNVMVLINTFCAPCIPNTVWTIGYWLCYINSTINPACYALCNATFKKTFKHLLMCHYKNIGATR
Give bare numbers, as −log10 of the molar value.

In the examples that follow, each entry is paired with its recorded pKi.
Enter pKi (test system Muscarinic acetylcholine receptor M2 (Homo sapiens, UniProt P08172)) for Cc1ccccc1C(=O)N1CCC(N2CCN([C@@H](C)c3ccc(Cc4ccc5c(c4)OCO5)cc3)[C@@H](C)C2)CC1
7.46

Enter pKi (test system Muscarinic acetylcholine receptor M2 (Homo sapiens, UniProt P08172)) for CC1CCCCN1C(=O)CCN1CCCc2ccccc21 (stereo not drawn)
5.49

Enter pKi (test system Muscarinic acetylcholine receptor M2 (Homo sapiens, UniProt P08172)) for CN1CCC=C(c2nsnc2OCCOCCOCCOCCO)C1
6.50

Enter pKi (test system Muscarinic acetylcholine receptor M2 (Homo sapiens, UniProt P08172)) for CN1/C(=C/C=C/C=C/C2=[N+](CCCCCC(=O)NCCCCCCN3CCC(COC(=O)Nc4ccc(F)cc4-c4ccc(F)c(Cl)c4)CC3)c3ccccc3C2(C)C)C(C)(C)c2ccccc21
8.17

Enter pKi (test system Muscarinic acetylcholine receptor M2 (Homo sapiens, UniProt P08172)) for C=C(c1ccc(Sc2ccc(OC)cc2)cc1)C1CCN(C2CCCCC2)CC1
9.43

Enter pKi (test system Muscarinic acetylcholine receptor M2 (Homo sapiens, UniProt P08172)) for CC(=C1CCN(C2CCN(C(=O)c3cccc(C)c3N)CC2)CC1)c1ccc(S(=O)(=O)C(C)C)cc1
7.49

Enter pKi (test system Muscarinic acetylcholine receptor M2 (Homo sapiens, UniProt P08172)) for CCCCN1CCN(CCCN2C(=O)CCc3ccccc32)CC1
5.38

Enter pKi (test system Muscarinic acetylcholine receptor M2 (Homo sapiens, UniProt P08172)) for COc1ccc(S(=O)(=O)c2ccc(C(C#N)C3CCN(C4CCCCC4)CC3)cc2)cc1 (stereo not drawn)
8.89

Enter pKi (test system Muscarinic acetylcholine receptor M2 (Homo sapiens, UniProt P08172)) for Cc1cccc(C(=O)N2CCC(N3CCC(Cc4ccc(C(=O)NC(C)C)cc4)CC3)CC2)c1N
8.05

Enter pKi (test system Muscarinic acetylcholine receptor M2 (Homo sapiens, UniProt P08172)) for NCCCCCCCCN1CCC(COC(=O)Nc2ccc(F)cc2-c2ccc(F)c(Cl)c2)CC1
9.04

List the reported pKi of each molecule below.
1. CCCCN(CCCC)c1ccc(/C=C/c2cc[n+](CCC[N+](CC)(CC)CC)cc2)cc1
2. OC1(C2=CN3CCC2CC3)c2ccccc2CCc2ccccc21
3. CCN(CC)CCOCCOC(=O)C1(c2ccccc2)CCCC1
4. CCC(=O)NCCNC(=O)CCc1cn(CCCCC2CCN(CC(=O)N3c4ccccc4NC(=O)c4ccccc43)CC2)cn1

1: 7.26; 2: 5.62; 3: 6.78; 4: 9.10

List the reported pKi of each molecule below.
1. CN(C)c1ccc2c(-c3ccc(-c4cn(CCCCCn5cc(CCCCCN6CCC(COC(=O)Nc7ccc(F)cc7-c7ccc(F)c(Cl)c7)CC6)nn5)nn4)cc3C(=O)[O-])c3ccc(=[N+](C)C)cc-3oc2c1
2. COc1nsnc1OCCOCCOCCOCCOCCOc1nsnc1C1=CCCN(C)C1
3. CC1CCCN(C(=O)CCN2CCCc3ccccc32)C1 (stereo not drawn)
4. O=C(Nc1ccccc1)c1ccc(CC2CCN(C3CCN(C(=O)c4ccc(F)c5ccccc45)CC3)CC2)cc1

7.59
8.60
6.39
6.98
